All values here come from patent US20180355059A1.

target: T1, recombinant human PCSK9 protein, His-tagged (Immunogen A, hPCSK9-His) (human, UniProt Q8NBP7 31-692, limits assumed, biotin-labelled in the ELISA and blocking assays (Biotin labeling kit)); assay: blocking ELISA, biotin-hPCSK9-His on coated LDLR ECD-His; antibody 8 nM
T1 construct: also called human PCSK9-His; recombinant hPCSK9-His; not shown: His tag
Readout Name: OD450 nm (PCSK9 bound to LDLR) (OD450 nm)
Give just the numeric value; OD450 nm need not be written.

>  <Binder>
76A1B11, chimeric anti-PCSK9 mAb purified from hybridoma (antibody, V domains shown, From Harbour H2L2 mice: human variable regions, rat constant regions) VH: QVQLVESGGGVVQPGRSLRLSCAATGFTFSIYGMHWVRQAPGKGLEWVAVIWYDGSNKYYADSVKGRFIISRDNSKNTLYLQMNSLRVEDTAVYYCVSDYFGSGNSYYYYGMDVWGQGTTVTVSS VL: DIQMTQSPSSLSASVGDRVTITCRASQVISNYLAWYQQKPGKVPKLLIYTASTLQSGVPSRFSGSGSGADFTLTISSLQPEDVATYYCQKYNSAPYTFGQGTKLEIK

>  <Reported Value>
0.7

$$$$

## Input Need OD450 nm (PCSK9 bound to LDLR), item 152G2F7, chimeric anti-PCSK9 mAb purified from hybridoma (antibody, V domains shown, From Harbour H2L2 mice: human variable regions, rat constant regions) VH: EVQLVESGGGLVQPGGSLRLSCAASEFTFGGYWMTWVRQAPGKGLEWVANIKQDGSEKYYVDSVKGRFTISRDNAKNSLYLHMNSLRAEDTAVYYCARDRTTMIRGVSLYYYYYGMDVWGQGTAVTVSS VL: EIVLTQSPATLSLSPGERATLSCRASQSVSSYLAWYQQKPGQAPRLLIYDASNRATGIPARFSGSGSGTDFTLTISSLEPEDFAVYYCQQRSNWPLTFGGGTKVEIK
## Output 0.94

## Input Quick one: OD450 nm (PCSK9 bound to LDLR) of 74C10A8, chimeric anti-PCSK9 mAb purified from hybridoma (antibody, V domains shown, From Harbour H2L2 mice: human variable regions, rat constant regions) VH: QVQLQESGPGLVKPSETLSLTCSVSGGSINTYYWSWIRQPPGKGLEWIGYIYYSGSTNYNPSLKSRVTISVDTSKNQFSLKLTSVTAADTAVYYCARERFTMVRGVMMDYYYYGMDVWGQGTTVTVSS VL: DIQLTQSPSFLSASVGDRVTITCRASQGISSYLAWYQQKPGKAPKLLIYAASTLQSGVPSRFSGSGSGTEFTLTISSLQPEDFATYYCQQLNSYPRTFGQGTKVEIK ?
## Output 0.78

## Input Any idea what its OD450 nm (PCSK9 bound to LDLR) is? The binder is 103C11E8, chimeric anti-PCSK9 mAb purified from hybridoma (antibody, V domains shown, From Harbour H2L2 mice: human variable regions, rat constant regions) VH: QVQLQESGPGLVKPSGTLSLTCAVSGGSISSSNWWSWVRQPPGKGLEWIGEIYHSGSTNYNPSLKSRVTISVDKSKNQFSLKLSSVTAADTAVYYCARGIAVAGTDVMDAWGQGASVTVSS VL: EIVLTQSPATLSLSPGERATLSCRASQSVSSYLVWYQQKSGQAPRLLIYGTSNRATGIPARFSGSGSGTDFTLTISSLEPEDFALYYCQQRGNWMYTFGQGTKLEIK
## Output 0.87
